Assay: Metabolic stability in human liver S9 fraction, HPLC
Type: in vitro ADME
Conditions: human, s9, pH 7.4
No end group written: not given here.
measuredAttribute: remaining at 24 h, 11.5 μM

Prompt line: // query remaining at 24 h, 11.5 μM value for entry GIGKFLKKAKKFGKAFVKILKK-NH2 [Pexiganan, reference compound]
Response line: < 1%

---

Tested on: S. aureus strain KCTC1621
Format: cell-based
Settings: KCTC1621, 18 h
Non-standard residues stand in square brackets, D forms with d. Residues, ends and D or L forms follow the SMILES beside them. Nspe = C[C@H](NCC(=O)O)c1ccccc1; Nphe = O=C(O)CNCc1ccccc1; Nlys = NCCCCNCC(=O)O
Listing of entries alongside the reported MIC S. aureus.

Example entries begin here.
>  <compound>
C[C@@H](c1ccccc1)N(CC(=O)N(CC(=O)N(CCCCN)CC(=O)N(CC(=O)N(CC(=O)N(CCCCN)CC(=O)N(CC(=O)N(CC(N)=O)Cc1ccccc1)Cc1ccccc1)Cc1ccccc1)Cc1ccccc1)Cc1ccccc1)C(=O)CN(CCCCN)C(=O)CN(Cc1ccccc1)C(=O)CN(Cc1ccccc1)C(=O)CNCCCCN [compound 5] (H-[Nlys][Nphe][Nphe][Nlys][Nspe][Nphe][Nlys][Nphe][Nphe][Nlys][Nphe][Nphe]-NH2)

>  <MIC S. aureus>
3.1 µM

$$$$
>  <compound>
C[C@@H](c1ccccc1)N(CC(N)=O)C(=O)CN(C(=O)CN(CCCCN)C(=O)CN(Cc1ccccc1)C(=O)CN(Cc1ccccc1)C(=O)CN(CCCCN)C(=O)CN(Cc1ccccc1)C(=O)CN(Cc1ccccc1)C(=O)CN(CCCCN)C(=O)CN(C(=O)CN(C(=O)CNCCCCN)[C@@H](C)c1ccccc1)[C@@H](C)c1ccccc1)[C@@H](C)c1ccccc1 [compound 11]

>  <MIC S. aureus>
3.1 µM

$$$$

Then there is this compound:
Prompt line: So what's the measured MIC S. aureus for this one? C[C@@H](c1ccccc1)N(CC(N)=O)C(=O)CN(Cc1ccccc1)C(=O)CN(CCCCN)C(=O)CN(Cc1ccccc1)C(=O)CN(Cc1ccccc1)C(=O)CN(CCCCN)C(=O)CN(Cc1ccccc1)C(=O)CN(Cc1ccccc1)C(=O)CN(CCCCN)C(=O)CN(Cc1ccccc1)C(=O)CN(C(=O)CNCCCCN)[C@@H](C)c1ccccc1 [compound 12]
Response line: 3.1 µM

---

Listed next: entries and their corresponding MIC S. aureus.
Tested on: S. aureus strain KCTC1621
Format: cell-based
Conditions: KCTC1621, 18 h
Non-standard residues stand in square brackets, D forms with d. Residues, ends and D or L forms follow the SMILES beside them. Nspe = C[C@H](NCC(=O)O)c1ccccc1; Nphe = O=C(O)CNCc1ccccc1; Nlys = NCCCCNCC(=O)O
State the answer as a number, implicitly in µM.

>  <compound>
NCCCCNCC(=O)N(CC(=O)N(CC(=O)N(CCCCN)CC(=O)N(CC(=O)N(CC(=O)N(CCCCN)CC(=O)N(CC(=O)N(CC(=O)N(CCCCN)CC(=O)N(CC(=O)N(CC(N)=O)Cc1ccccc1)Cc1ccccc1)Cc1ccccc1)Cc1ccccc1)Cc1ccccc1)Cc1ccccc1)Cc1ccccc1)Cc1ccccc1 [compound 2] (H-[Nlys][Nphe][Nphe][Nlys][Nphe][Nphe][Nlys][Nphe][Nphe][Nlys][Nphe][Nphe]-NH2)

>  <assayResult>
3.1

$$$$

Prompt line: # query: MIC S. aureus of entry C[C@@H](c1ccccc1)N(CC(=O)N(CCCCN)CC(=O)N(CC(=O)N(CC(=O)N(CCCCN)CC(=O)N(CC(=O)N(CC(=O)N(CCCCN)CC(=O)N(CC(=O)N(CC(N)=O)Cc1ccccc1)Cc1ccccc1)Cc1ccccc1)Cc1ccccc1)Cc1ccccc1)Cc1ccccc1)C(=O)CN(Cc1ccccc1)C(=O)CNCCCCN [compound 4] (H-[Nlys][Nphe][Nspe][Nlys][Nphe][Nphe][Nlys][Nphe][Nphe][Nlys][Nphe][Nphe]-NH2)
Response line: 3.1

---

System: red blood cells
Experiment: Hemolytic activity on red blood cells
Assay type: cell-based, mouse
Non-standard residues stand in square brackets, D forms with d. Residues, ends and D or L forms follow the SMILES beside them. Nspe = C[C@H](NCC(=O)O)c1ccccc1; Nphe = O=C(O)CNCc1ccccc1; Nlys = NCCCCNCC(=O)O
measuredAttribute: HD10
Number, no unit, nothing else.

Prompt line: For the molecule shown here, C[C@@H](c1ccccc1)N(CC(=O)N(CCCCN)CC(=O)N(CC(=O)N(CC(=O)N(CCCCN)CC(=O)N(CC(=O)N(CC(N)=O)Cc1ccccc1)Cc1ccccc1)[C@@H](C)c1ccccc1)[C@@H](C)c1ccccc1)C(=O)CN(C(=O)CN(CCCCN)C(=O)CN(Cc1ccccc1)C(=O)CN(Cc1ccccc1)C(=O)CNCCCCN)[C@@H](C)c1ccccc1 [compound 16] (H-[Nlys][Nphe][Nphe][Nlys][Nspe][Nspe][Nlys][Nspe][Nspe][Nlys][Nphe][Nphe]-NH2) , give the reported HD10.
Response line: 53.0

---

Tested on: red blood cells
Assay: Hemolytic activity on red blood cells
Format: cell-based, mouse
Non-standard residues stand in square brackets, D forms with d. Residues, ends and D or L forms follow the SMILES beside them. Nspe = C[C@H](NCC(=O)O)c1ccccc1; Nphe = O=C(O)CNCc1ccccc1; Nlys = NCCCCNCC(=O)O
measuredAttribute: HD10
Please give only the number in your answer, with no unit.

Prompt line: Which value of HD10 has been reported for C[C@@H](c1ccccc1)N(CC(=O)N(CCCCN)CC(=O)N(CC(=O)N(CC(=O)N(CCCCN)CC(=O)N(CC(=O)N(CC(N)=O)Cc1ccccc1)Cc1ccccc1)Cc1ccccc1)Cc1ccccc1)C(=O)CN(Cc1ccccc1)C(=O)CN(CCCCN)C(=O)CN(Cc1ccccc1)C(=O)CN(Cc1ccccc1)C(=O)CNCCCCN [compound 6] (H-[Nlys][Nphe][Nphe][Nlys][Nphe][Nspe][Nlys][Nphe][Nphe][Nlys][Nphe][Nphe]-NH2) in the records?
Response line: 101.4
